target: Mitogen-activated protein kinase 3 (Homo sapiens) (UniProt P27361); conditions: at 1 µM
Sequence (P27361 whole entry): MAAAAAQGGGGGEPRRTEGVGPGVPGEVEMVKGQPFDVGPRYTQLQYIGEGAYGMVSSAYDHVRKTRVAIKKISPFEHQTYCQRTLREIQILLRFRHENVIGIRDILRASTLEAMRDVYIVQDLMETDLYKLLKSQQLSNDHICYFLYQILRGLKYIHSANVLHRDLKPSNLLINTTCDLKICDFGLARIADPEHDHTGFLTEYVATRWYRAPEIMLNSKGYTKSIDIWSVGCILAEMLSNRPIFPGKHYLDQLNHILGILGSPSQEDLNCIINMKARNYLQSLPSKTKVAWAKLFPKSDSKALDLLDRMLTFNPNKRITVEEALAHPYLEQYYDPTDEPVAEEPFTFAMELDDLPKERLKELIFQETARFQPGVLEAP
Description: Millipore: Percentage of residual kinase activity of MAPK3 at 1uM relative to control. Control inhibitor: ERK Inhibitor II at 30.0uM. Buffer: 25 mM Tris pH 7.5, 0.02 mM EGTA
Task for the reader: assign each of the following molecules its reported residual activity.
Give bare numbers, in %.

Would you please look over these solved cases?
> print(dat)
                        structure.as.smiles                          target.or.system  observed.measurement
1                   Nc1ncnc2c1cnn2-c1ccccc1  Mitogen-activated protein kinase 3 (Homo sapiens) (UniProt P27361)                    82
2  CC(C)(C)n1nc(Cc2cccc3ccccc23)c2c(N)ncnc21  Mitogen-activated protein kinase 3 (Homo sapiens) (UniProt P27361)                    78
3     O=c1cc(N2CCOCC2)oc2c(-c3ccccc3)cccc12  Mitogen-activated protein kinase 3 (Homo sapiens) (UniProt P27361)                    78

--- query ---
Incoming: Recall the recorded residual activity for "O=C(c1cc2cc(O)ccc2[nH]1)c1cc2cc(O)ccc2[nH]1" with Mitogen-activated protein kinase 3 (Homo sapiens) (UniProt P27361) and state it.
Outgoing: 82

// data source = ChEMBL document CHEMBL2218924
